B1: library; numbered along this chain (parent)
chain: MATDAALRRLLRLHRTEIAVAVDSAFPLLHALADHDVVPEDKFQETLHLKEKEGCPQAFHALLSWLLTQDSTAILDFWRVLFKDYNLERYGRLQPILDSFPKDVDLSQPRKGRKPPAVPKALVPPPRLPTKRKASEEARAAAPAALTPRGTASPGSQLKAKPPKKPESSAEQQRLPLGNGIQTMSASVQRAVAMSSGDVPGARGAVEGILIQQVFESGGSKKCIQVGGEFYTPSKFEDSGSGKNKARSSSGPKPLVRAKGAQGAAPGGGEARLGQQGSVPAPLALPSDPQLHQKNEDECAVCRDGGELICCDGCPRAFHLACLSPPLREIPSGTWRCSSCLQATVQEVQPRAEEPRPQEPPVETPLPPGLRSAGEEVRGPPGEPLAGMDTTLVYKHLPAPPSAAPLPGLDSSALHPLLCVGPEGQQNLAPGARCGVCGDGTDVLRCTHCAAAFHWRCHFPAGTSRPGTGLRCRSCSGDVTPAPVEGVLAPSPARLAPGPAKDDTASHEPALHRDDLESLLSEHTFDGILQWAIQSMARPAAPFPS

- Variants of: B1
- PROCEDURE DETAILS: AIRE transcriptional activation functional score (insulin promoter-GFP; nonsense median 0, synonymous median 1) (normalised score); higher = higher AIRE activity (more reporter activation)
- ASSAY CONTEXT: with insulin promoter-GFP reporter in HEK293
Lab note: anything with AIRE transcriptional activation functional score at or over 0.6 counts as Y; the rest go in N.

Query block: Does `F236P` have a reported AIRE transcriptional activation functional score of at least 0.6?
Result block: N

Query block: Does `R356G` have a reported AIRE transcriptional activation functional score of at least 0.6?
Result block: Y

Query block: Does `T504I` have a reported AIRE transcriptional activation functional score of at least 0.6?
Result block: Y

Query block: Does `V20K` have a reported AIRE transcriptional activation functional score of at least 0.6?
Result block: N

Query block: Does `L49S` have a reported AIRE transcriptional activation functional score of at least 0.6?
Result block: N

Query block: Does `A6E` have a reported AIRE transcriptional activation functional score of at least 0.6?
Result block: Y

Query block: Does `S156P` have a reported AIRE transcriptional activation functional score of at least 0.6?
Result block: N

Query block: Does `E40A` have a reported AIRE transcriptional activation functional score of at least 0.6?
Result block: N

Query block: Does `G251T` have a reported AIRE transcriptional activation functional score of at least 0.6?
Result block: Y

Query block: Does `V348P` have a reported AIRE transcriptional activation functional score of at least 0.6?
Result block: Y

Query block: Does `P400N` have a reported AIRE transcriptional activation functional score of at least 0.6?
Result block: N

Query block: Does `S196F` have a reported AIRE transcriptional activation functional score of at least 0.6?
Result block: N

Query block: Does `D304F` have a reported AIRE transcriptional activation functional score of at least 0.6?
Result block: N

Query block: Does `G91K` have a reported AIRE transcriptional activation functional score of at least 0.6?
Result block: N

Query block: Does `A33D` have a reported AIRE transcriptional activation functional score of at least 0.6?
Result block: N

Query block: Does `G268R` have a reported AIRE transcriptional activation functional score of at least 0.6?
Result block: Y

Query block: Does `L385E` have a reported AIRE transcriptional activation functional score of at least 0.6?
Result block: Y

Query block: Does `K164G` have a reported AIRE transcriptional activation functional score of at least 0.6?
Result block: Y

Query block: Does `A141C` have a reported AIRE transcriptional activation functional score of at least 0.6?
Result block: Y

Query block: Does `Q534S` have a reported AIRE transcriptional activation functional score of at least 0.6?
Result block: N

Query block: Does `L63W` have a reported AIRE transcriptional activation functional score of at least 0.6?
Result block: N

Query block: Does `D4R` have a reported AIRE transcriptional activation functional score of at least 0.6?
Result block: N

Query block: Does `S71H` have a reported AIRE transcriptional activation functional score of at least 0.6?
Result block: Y

Query block: Does `T468R` have a reported AIRE transcriptional activation functional score of at least 0.6?
Result block: Y

Query block: Does `S464H` have a reported AIRE transcriptional activation functional score of at least 0.6?
Result block: Y

Query block: Does `P315L` have a reported AIRE transcriptional activation functional score of at least 0.6?
Result block: Y
